# Test system: A549
# EXPERIMENTAL DETAILS: Growth inhibition of human A549 cells incubated for 6 days in presence of 400 U/ml IFNalpha by MTS assay
# Assay type: functional, cell-based
# MEASUREMENT SETUP: A549, 144 h
pEC50: −log10 of the molar value.
REPORTED PROPERTY: pEC50

SMILES ENTRY	pEC50
COC[C@H]1O[C@H](O[C@@H]2C3=C(C(C)C)CC[C@]3(C)/C=C3\[C@@H](CC[C@]3(O)COC)[C@@H](C)[C@H]2O)[C@H](O)[C@H]2O[C@H]3O[C@]21O[C@@]3(C)[C@@H]1CO1	4.77

I: COC[C@@]1(O)CC[C@@H]2/C1=C\[C@@]1(C)CCC(C(C)C)=C1[C@@H](O[C@H]1O[C@@H]3COC(C)(C)O[C@H]3[C@H](O)[C@H]1O)[C@H](O)[C@@H]2C
II: COC[C@H]1CC[C@@H]2/C1=C\[C@@]1(C)CCC(C(C)C)=C1[C@@H](O[C@H]1O[C@@H]3COC(C)(C)O[C@H]3[C@H](O)[C@H]1O)[C@H](O)[C@@H]2C
Between item I and item II , which reported pEC50 is smaller? Provide the label of your selected option as the answer. II
